Ref: patent US20180187263A1

# target.under.test: Bovine H1 histamine receptor (Bos taurus, UniProt P30546)
# Construct: expressed in transfected cells; host or cells: BHK cells, transient, lipofectamine, pcDNA3.3
# Sequence (P30546 whole entry): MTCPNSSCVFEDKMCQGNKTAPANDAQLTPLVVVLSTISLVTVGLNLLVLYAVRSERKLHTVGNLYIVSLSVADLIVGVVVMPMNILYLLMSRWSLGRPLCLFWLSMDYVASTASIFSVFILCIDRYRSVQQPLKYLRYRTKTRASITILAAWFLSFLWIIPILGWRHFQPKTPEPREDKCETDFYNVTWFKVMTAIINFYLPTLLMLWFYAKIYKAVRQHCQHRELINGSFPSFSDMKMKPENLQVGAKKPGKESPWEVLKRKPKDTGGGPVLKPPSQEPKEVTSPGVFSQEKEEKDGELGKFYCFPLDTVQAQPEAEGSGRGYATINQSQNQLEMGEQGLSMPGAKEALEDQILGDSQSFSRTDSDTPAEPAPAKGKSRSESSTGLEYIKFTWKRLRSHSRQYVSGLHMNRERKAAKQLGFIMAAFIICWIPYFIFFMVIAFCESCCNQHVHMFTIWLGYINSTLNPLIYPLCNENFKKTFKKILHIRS
# assay.details: histamine-mediated intracellular calcium accumulation in BHK cells transiently expressing bovine H1 histamine receptor
# Assay type: cell-based
# condition.context: 10 nM histamine
property: block of H1 histamine receptor function, FIG. 13

Cc1cncc(CN2CCC(=C3c4ccc(Cl)cc4CCc4cccnc43)CC2)c1 [rupatadine]: block
CCOC(=O)[C@H](CC(C)C)N(C)S(=O)(=O)c1ccc(Cn2c(C)nc3cnccc32)cc1 [lexipafant]: fail to black
CN(C)CCN(Cc1ccccc1)c1ccccn1 [tripelennamine]: block
Cc1nnc2n1-c1sc(CCC(=O)N3CCOCC3)cc1C(c1ccccc1Cl)=NC2 [WEB2086]: fail to black

---

# target.under.test: Bovine PAFR (Bos taurus)
# Construct: expressed in transfected cells; host or cells: BHK cells, transient, lipofectamine, pcDNA3.3
# Sequence (Q9TTY5 whole entry): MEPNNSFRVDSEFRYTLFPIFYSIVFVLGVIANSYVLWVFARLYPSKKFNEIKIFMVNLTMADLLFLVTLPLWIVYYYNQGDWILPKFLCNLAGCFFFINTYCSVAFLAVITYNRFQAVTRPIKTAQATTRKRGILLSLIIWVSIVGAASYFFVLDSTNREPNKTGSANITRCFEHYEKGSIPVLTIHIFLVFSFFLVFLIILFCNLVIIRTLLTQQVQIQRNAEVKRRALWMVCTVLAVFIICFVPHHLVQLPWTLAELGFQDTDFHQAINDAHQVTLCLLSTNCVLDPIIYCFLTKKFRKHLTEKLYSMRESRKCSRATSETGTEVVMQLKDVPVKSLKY
# assay.details: PAF-mediated intracellular calcium accumulation in BHK cells transiently expressing bovine PAFR
# Format: cell-based
# condition.context: 10 nM PAF; antagonist 1-100 nM; PAFR antagonists panel
property: block of bovine PAFR (PAF-mediated intracellular calcium accumulation), FIG. 11

Cc1nnc2n1-c1sc(CCC(=O)N3CCOCC3)cc1C(c1ccccc1Cl)=NC2: blocked
CCOC(=O)[C@H](CC(C)C)N(C)S(=O)(=O)c1ccc(Cn2c(C)nc3cnccc32)cc1: blocked
Cc1cncc(CN2CCC(=C3c4ccc(Cl)cc4CCc4cccnc43)CC2)c1: blocked
